Tested on: NCI-H522 lung
Experiment: NCI-60 one-dose screen, 48 h
Details: 10 µM unless noted
Compounds without any hit were thinned out: in the full panel of roughly 83,000, 20% have a hit. Calls of active or inactive are those of the source. The calls were made as follows: active = growth percent below 10; inactive = the rest.
The reply should be one of these categories: class 1 = active, class 0 = inactive

Cn1ccc(Cc2cnc(N)s2)n1	class 0
CCCCCCCC/C=C/CCCCCCCC1=NCC[N+]1(CCO)CCO	class 0
N#Cc1c(N)n2c(nc1=Nc1ccc([N+](=O)[O-])cc1)sc1cc(Cl)ccc12	class 0
O=c1[nH]nc(-c2ccc(Cl)cc2)cc1Cc1ccccc1	class 0
CCNCCNc1cc(-c2ccc(C(F)(F)F)cc2)c(C#N)c2nc3cc(Cl)c(Cl)cc3n12	class 1

Query: Check the results log: what was the call for CCOc1cc(C2C(Cl)C(=O)N2n2cnnc2)ccc1O (stereo not drawn) ?
Response: class 0

Query: Also need C=C1C(=O)O[C@H]2[C@H]1CC/C(COC(=O)/C=C\C(=O)NCc1ccc(Cn3c(=O)sn(CCCI)c3=O)cc1)=C\CC[C@@]1(C)O[C@@H]21 , thanks.
Response: class 1

Query: Also need CC(C)(O)c1cccc(F)c1 , thanks.
Response: class 0

Query: Also need CC(C)n1nc(C#Cc2cccc(NC(=O)c3cccc(C(F)(F)F)c3)c2)c2c(N)ncnc21 , thanks.
Response: class 1

Query: Also need CSc1ncc(C)c(Nc2ccc(Cl)cc2)n1 , thanks.
Response: class 0

Query: Also need C=C1C(=O)O[C@H]2[C@H]1CC/C(COC(=O)/C=C\C(=O)NCc1ccc(Cn3c(=O)sn(CCCC)c3=O)cc1)=C\CC[C@@]1(C)O[C@@H]21 , thanks.
Response: class 1

Query: Also need COc1cccc(/C=C2\COc3ccc(O)cc3C2=O)c1OC , thanks.
Response: class 0

Query: Also need C=C1C(=O)O[C@H]2[C@H]1CC/C(COC(=O)NCc1ccc(Cn3c(=O)sn(CCCCl)c3=O)cc1)=C\CC[C@@]1(C)O[C@@H]21 , thanks.
Response: class 1

Query: Also need O=C(C[C@@]1(O)C(=O)Nc2c(Cl)ccc(Cl)c21)c1ccc(C2CC2)cc1 , thanks.
Response: class 0

Query: Also need OC(CBr)c1ccnc2ccccc12 (stereo not drawn) , thanks.
Response: class 0

Query: Also need O=C1Nc2ccccc2SC1C1SC(=S)N(Cc2ccccc2)C1=O (stereo not drawn) , thanks.
Response: class 0

Query: Also need CC(=O)Nc1cccc(C2=CC(c3ccc(C)cc3)n3ncnc3N2)c1 (stereo not drawn) , thanks.
Response: class 0

Query: Also need N=C(N)c1ccc(-c2ccc(-c3ccc(Cl)cn3)s2)cc1 , thanks.
Response: class 0

Query: Also need COc1ccc(/C(C)=C(\c2ccc(Cl)cc2)c2ccc(OCCN3CCCCC3)cc2)cc1F , thanks.
Response: class 0
